Give measured DC50 for each item. Keep answers brief.
Target: EGFR L858R/T790M (H1975-clone #36, homozygous) (Homo sapiens, UniProt P00533, L858R/T790M)
Construct: designed to specifically target WT EGFR but preserve the L858R/T790M copy; host or cells: H1975-clone #36
Sequence (P00533 25-1210 T790M/L858R): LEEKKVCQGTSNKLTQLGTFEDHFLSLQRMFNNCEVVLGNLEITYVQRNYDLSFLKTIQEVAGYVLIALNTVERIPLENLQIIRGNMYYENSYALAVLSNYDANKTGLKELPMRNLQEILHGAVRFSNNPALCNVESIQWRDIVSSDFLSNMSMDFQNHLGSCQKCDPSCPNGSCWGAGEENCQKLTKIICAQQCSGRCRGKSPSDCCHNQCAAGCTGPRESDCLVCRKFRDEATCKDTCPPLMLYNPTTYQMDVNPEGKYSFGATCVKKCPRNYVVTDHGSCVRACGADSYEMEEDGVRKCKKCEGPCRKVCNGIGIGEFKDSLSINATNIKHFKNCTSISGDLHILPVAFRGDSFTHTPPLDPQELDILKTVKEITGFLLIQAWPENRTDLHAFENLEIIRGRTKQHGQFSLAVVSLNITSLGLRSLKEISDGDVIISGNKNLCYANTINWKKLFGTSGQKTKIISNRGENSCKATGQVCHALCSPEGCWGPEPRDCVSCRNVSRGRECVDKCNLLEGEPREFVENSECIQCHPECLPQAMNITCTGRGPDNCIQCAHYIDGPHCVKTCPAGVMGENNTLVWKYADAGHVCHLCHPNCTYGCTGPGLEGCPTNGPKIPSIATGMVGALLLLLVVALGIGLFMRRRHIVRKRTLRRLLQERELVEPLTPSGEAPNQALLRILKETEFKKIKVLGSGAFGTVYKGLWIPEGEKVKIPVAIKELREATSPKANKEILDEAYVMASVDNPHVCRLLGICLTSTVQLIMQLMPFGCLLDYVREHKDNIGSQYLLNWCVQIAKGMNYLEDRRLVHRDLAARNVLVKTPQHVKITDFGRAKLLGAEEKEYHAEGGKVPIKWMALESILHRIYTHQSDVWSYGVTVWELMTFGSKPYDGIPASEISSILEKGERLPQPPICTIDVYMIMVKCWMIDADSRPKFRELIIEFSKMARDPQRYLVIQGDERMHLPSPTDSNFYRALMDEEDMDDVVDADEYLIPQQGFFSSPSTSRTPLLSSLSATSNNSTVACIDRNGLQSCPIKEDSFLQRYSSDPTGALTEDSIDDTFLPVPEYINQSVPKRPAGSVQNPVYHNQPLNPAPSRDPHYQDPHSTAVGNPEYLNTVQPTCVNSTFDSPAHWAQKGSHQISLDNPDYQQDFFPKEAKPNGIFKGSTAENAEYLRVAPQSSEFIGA
Test: EGFR degradation HTRF assay, H1975-clone #36 cells
Type: cell-based
Conditions: H1975 #36, 16h treatment
Experimental: H1975-clone #36(L858R/T790M). H1975 cell heterozygously (from ATCC) contains alleles of WT and L858R/T790M EGFR. […] The inhibition (degradation) percentage of the compound was calculated by the following equation: Inhibition percentage of Compound=100-100×(Signal-low control)/(High control-low control), wherein signal=each test compound group High control=Cell group with added DMSO and without compound, indicating microplate readings without EGFR degradation; […]
One number for each entry, in nM.

Before answering, review these 3 worked examples.
[
  {
    "Compound": "COc1cc(N2CCN(C3CN(C(=O)c4cnc(C(=O)Nc5ccc(C6CCC(=O)NC6=O)cc5)cn4)C3)CC2)c(C)cc1Nc1ncc(Br)c(Nc2ccc3nccnc3c2P(C)(C)=O)n1 (centres unmarked)",
    "Measurement Type": "DC50",
    "Recorded Number": 8.7
  },
  {
    "Compound": "CCc1cc(Nc2ncc(Br)c(Nc3ccc4nccnc4c3P(C)(C)=O)n2)c(OC)cc1N1CCC(N2CCN(CCC3CCN(c4ccc(C5CCC(=O)NC5=O)c(C#N)c4)CC3)CC2)CC1 (centres unmarked)",
    "Measurement Type": "DC50",
    "Recorded Number": 8.6
  },
  {
    "Compound": "CCc1cc(Nc2ncc(Br)c(Nc3ccc4nccnc4c3P(C)(C)=O)n2)c(OC)cc1N1CCC(N2CCN(CCC3CN(c4ccc5c(c4)C(=O)N(C4CCC(=O)NC4=O)C5=O)C3)CC2)CC1 (centres unmarked)",
    "Measurement Type": "DC50",
    "Recorded Number": 3.9
  }
]

EGFR L858R/T790M (H1975-clone #36, homozygous) (Homo sapiens, UniProt P00533, L858R/T790M) data for COc1cc(N2CCC(N3CCN(CCCOc4ccc(OC5CCC(=O)NC5=O)cc4)CC3)CC2)ccc1Nc1ncc(Cl)c(Nc2ccccc2N(C)S(C)(=O)=O)n1 (centres unmarked) ; its DC50: 11.9

###

Target: EGFR L858R/T790M/C797S (BaF3-LTC cells) (Homo sapiens, UniProt P00533, C797S/L858R/T790M)
Construct: expressed in transfected cells; host or cells: BaF3
Sequence (P00533 25-1210 T790M/C797S/L858R): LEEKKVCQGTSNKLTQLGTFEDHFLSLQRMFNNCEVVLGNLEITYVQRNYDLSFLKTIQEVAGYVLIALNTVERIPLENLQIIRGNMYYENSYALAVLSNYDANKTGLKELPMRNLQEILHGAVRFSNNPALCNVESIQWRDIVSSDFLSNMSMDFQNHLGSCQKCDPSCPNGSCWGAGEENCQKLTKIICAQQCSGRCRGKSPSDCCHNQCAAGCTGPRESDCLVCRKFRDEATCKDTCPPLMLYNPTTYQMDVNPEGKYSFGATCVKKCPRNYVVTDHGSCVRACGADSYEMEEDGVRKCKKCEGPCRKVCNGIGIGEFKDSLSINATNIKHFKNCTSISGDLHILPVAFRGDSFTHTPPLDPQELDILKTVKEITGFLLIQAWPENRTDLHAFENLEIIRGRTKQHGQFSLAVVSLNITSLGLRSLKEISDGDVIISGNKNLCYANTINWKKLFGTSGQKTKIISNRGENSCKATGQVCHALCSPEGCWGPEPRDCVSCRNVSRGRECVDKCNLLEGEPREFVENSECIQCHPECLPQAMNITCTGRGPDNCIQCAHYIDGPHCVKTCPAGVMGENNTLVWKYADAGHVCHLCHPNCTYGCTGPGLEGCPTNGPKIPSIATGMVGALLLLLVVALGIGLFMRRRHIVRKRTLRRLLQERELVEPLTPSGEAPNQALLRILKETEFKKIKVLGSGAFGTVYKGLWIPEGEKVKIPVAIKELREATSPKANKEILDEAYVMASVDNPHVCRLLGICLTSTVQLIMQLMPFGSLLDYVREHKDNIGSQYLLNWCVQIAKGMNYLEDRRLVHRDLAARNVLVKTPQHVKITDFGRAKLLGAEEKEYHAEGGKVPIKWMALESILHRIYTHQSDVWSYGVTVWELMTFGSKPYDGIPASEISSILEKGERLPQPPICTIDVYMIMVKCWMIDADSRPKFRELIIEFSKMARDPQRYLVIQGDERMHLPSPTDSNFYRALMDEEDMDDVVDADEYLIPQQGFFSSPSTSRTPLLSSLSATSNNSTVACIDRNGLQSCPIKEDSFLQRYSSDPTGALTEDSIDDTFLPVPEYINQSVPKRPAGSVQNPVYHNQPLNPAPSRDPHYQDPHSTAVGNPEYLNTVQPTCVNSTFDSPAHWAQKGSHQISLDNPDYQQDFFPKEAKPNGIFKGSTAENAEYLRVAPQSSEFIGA
Experiment: EGFR degradation HTRF assay, BaF3-LTC cells
Format: cell-based
Settings: BaF3-LTC, 16h treatment, maximum percentage of degradation; read-out: LTC Dmax (%)
Method: BaF3 WT(wild type), BaF3-LTC(L858R/T790M/C797S) and BaF3-DTC(Del19/T790M/C797S) cells are treated with compounds diluted in 0.2% DMSO cell culture medium and incubate for 16h, 37° C., 5% CO2, H1975-#36, H1975-#28, H1975-#23 and HCC827 cells are treated with compounds diluted in 0.2% DMSO cell culture medium on day 2, incubate for 16h, 37° C., 5% CO2.the final concentriation of compounds in all assay is start with 10 uM, 5-fold dilution, total 8 doses were included. […]
Give Dmax for every item shown.
Answers are plain numbers, in %.

[
  {
    "Molecule": "CCc1cc(Nc2ncc(Br)c(Nc3ccc4nc(C(C)C)ccc4c3P(C)(C)=O)n2)c(OC)cc1N1CCC(N2CCN(CCC3CCN(c4cc(F)c(C5CCC(=O)NC5=O)c(F)c4)CC3)CC2)CC1 (stereo not shown)",
    "System": "EGFR L858R/T790M/C797S (BaF3-LTC cells) (Homo sapiens, UniProt P00533, C797S/L858R/T790M)",
    "Dmax, %": 87.5
  },
  {
    "Molecule": "COc1cc(N2CCC(N3CCN(C(=O)CCN4CCC(c5ccc(C6CCC(=O)NC6=O)cc5)CC4)CC3)CC2)ccc1Nc1ncc(Cl)c(Nc2ccccc2N(C)S(C)(=O)=O)n1 (stereo not shown)",
    "System": "EGFR L858R/T790M/C797S (BaF3-LTC cells) (Homo sapiens, UniProt P00533, C797S/L858R/T790M)",
    "Dmax, %": 21.2
  },
  {
    "Molecule": "CCc1cc(Nc2ncc(Br)c(Nc3ccc4c(=O)n(C)ccc4c3P(C)(C)=O)n2)c(OC)cc1N1CCC(N2CCN(CCc3cc(F)c(C4CCC(=O)NC4=O)c(F)c3)CC2)CC1 (stereo not shown)",
    "System": "EGFR L858R/T790M/C797S (BaF3-LTC cells) (Homo sapiens, UniProt P00533, C797S/L858R/T790M)",
    "Dmax, %": 91.3
  },
  {
    "Molecule": "CCc1cc(Nc2ncc(Br)c(Nc3ccc4nc(C)ccc4c3P(C)(C)=O)n2)c(OC)cc1N1CCC(N2CCN(CCc3ccc4nn(C5CCC(=O)NC5=O)cc4c3)CC2)CC1 (stereo not shown)",
    "System": "EGFR L858R/T790M/C797S (BaF3-LTC cells) (Homo sapiens, UniProt P00533, C797S/L858R/T790M)",
    "Dmax, %": 90.7
  },
  {
    "Molecule": "CCc1cc(Nc2ncc(Br)c(Nc3ccc4nc(C)ccc4c3P(C)(C)=O)n2)c(OC)cc1N1CCC(N2CCN(CCC3CCN(c4cc(F)c(C5CCC(=O)NC5=O)c(F)c4)CC3)CC2)CC1 (stereo not shown)",
    "System": "EGFR L858R/T790M/C797S (BaF3-LTC cells) (Homo sapiens, UniProt P00533, C797S/L858R/T790M)",
    "Dmax, %": 86.1
  }
]

Provide Dmax for all items below, preserving their order.
1. CCc1cc(Nc2ncc(Br)c(Nc3ccc4nccnc4c3P(C)(C)=O)n2)c(OC)cc1N1CCC(N2CCN(C(=O)C3CN(c4ccc5c(c4)C(=O)N(C4CCC(=O)NC4=O)C5=O)C3)CC2)CC1 (stereo not shown)
2. CCc1cc(Nc2ncc(Br)c(Nc3ccc4nccnc4c3P(C)(C)=O)n2)c(OC)cc1N1CCC(N2CCN(CC3CCN(c4cccc(C5CCC(=O)NC5=O)c4)CC3)CC2)CC1 (stereo not shown)
3. CCc1cc(Nc2ncc(Br)c(Nc3ccc4nccnc4c3P(C)(C)=O)n2)c(OC)cc1N1CCN(C2CCN(C3CCC(c4ccc(C5CCC(=O)NC5=O)cc4)C3)CC2)CC1 (stereo not shown)
4. COc1cc(N2CCC(N3CCN(CCc4ccc(C5CCC(=O)NC5=O)c(F)c4)CC3)CC2)ccc1Nc1ncc(Br)c(Nc2ccc3nccnc3c2P(C)(C)=O)n1 (stereo not shown)
5. CCc1cc(Nc2ncc(Br)c(Nc3ccc4nc(C)ccc4c3P(C)(C)=O)n2)c(OC)cc1N1CCC(N2CCN(CCN(C)c3cccc4c3CN(C3CCC(=O)NC3=O)C4=O)CC2)CC1 (stereo not shown)

-- reply
1: 85.4; 2: 86.2; 3: 83.5; 4: 78.8; 5: 91.8

###

target: EGFR L858R/C797S (BaF3 LC cells) (Homo sapiens, UniProt P00533, C797S/L858R); construct: expressed in transfected cells; host or cells: BaF3; test: EGFR degradation HTRF assay, BaF3 LC cells; format: cell-based; details: BaF3 LC, 16h treatment; read-out: BaF3 LC DC50
Sequence (P00533 25-1210 C797S/L858R): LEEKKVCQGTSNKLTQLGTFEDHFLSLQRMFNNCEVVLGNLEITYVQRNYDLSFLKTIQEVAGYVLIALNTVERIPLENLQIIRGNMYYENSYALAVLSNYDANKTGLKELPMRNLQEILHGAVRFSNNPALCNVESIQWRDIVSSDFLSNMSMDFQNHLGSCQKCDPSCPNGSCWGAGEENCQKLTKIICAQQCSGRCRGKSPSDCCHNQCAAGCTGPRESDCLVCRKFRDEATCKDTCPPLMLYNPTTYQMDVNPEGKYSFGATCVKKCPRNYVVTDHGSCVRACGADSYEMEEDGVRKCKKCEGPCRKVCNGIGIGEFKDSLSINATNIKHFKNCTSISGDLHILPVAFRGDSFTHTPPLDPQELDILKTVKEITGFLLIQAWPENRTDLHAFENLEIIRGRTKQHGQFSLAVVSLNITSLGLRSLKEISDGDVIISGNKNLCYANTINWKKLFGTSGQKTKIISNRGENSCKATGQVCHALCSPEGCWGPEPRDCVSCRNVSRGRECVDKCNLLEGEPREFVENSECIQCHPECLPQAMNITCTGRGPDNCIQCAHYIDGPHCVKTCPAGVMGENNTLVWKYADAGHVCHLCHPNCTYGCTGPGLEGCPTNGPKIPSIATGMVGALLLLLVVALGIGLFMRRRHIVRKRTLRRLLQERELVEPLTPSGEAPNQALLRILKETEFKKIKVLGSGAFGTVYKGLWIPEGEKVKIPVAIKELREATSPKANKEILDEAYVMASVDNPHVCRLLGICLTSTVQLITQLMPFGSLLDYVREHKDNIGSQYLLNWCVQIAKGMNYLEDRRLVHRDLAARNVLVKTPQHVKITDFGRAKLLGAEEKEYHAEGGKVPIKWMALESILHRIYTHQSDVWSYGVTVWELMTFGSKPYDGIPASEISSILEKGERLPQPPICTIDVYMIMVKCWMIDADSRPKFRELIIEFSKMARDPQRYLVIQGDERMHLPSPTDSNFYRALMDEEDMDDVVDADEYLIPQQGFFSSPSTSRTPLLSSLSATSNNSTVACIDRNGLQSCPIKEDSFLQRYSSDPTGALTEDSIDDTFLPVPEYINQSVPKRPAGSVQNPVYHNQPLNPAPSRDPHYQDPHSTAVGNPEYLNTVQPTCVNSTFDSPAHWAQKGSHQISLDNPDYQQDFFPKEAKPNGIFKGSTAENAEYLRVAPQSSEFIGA
Measurement Type: DC50
Please answer in the form of a number followed by its unit of measurement.

[
  {
    "Molecule": "CCOc1cc(N2CCC(N3CCN(CCc4cc(F)c(F)c5c4oc(=O)n5C4CCC(=O)NC4=O)CC3)CC2)c(CC)cc1Nc1ncc(Br)c(Nc2ccc3nc(CC)ccc3c2P(C)(C)=O)n1 (centres unmarked) [Example 474]",
    "System": "EGFR L858R/C797S (BaF3 LC cells) (Homo sapiens, UniProt P00533, C797S/L858R)",
    "DC50": "30.4 nM"
  },
  {
    "Molecule": "CCc1cc(Nc2ncc(Br)c(Nc3ccc4c(=O)n(C5CC5)ncc4c3P(C)(C)=O)n2)c(OC)cc1N1CCC(N2CCN(CCc3cc(F)c(C4CCC(=O)NC4=O)c(F)c3)CC2)CC1 (centres unmarked) [Example 521]",
    "System": "EGFR L858R/C797S (BaF3 LC cells) (Homo sapiens, UniProt P00533, C797S/L858R)",
    "DC50": "51.6 nM"
  },
  {
    "Molecule": "CCOc1cc(N2CCC(N3CCN(CCc4ccc(C)c5c4oc(=O)n5C4CCC(=O)NC4=O)CC3)CC2)c(CC)cc1Nc1ncc(Br)c(Nc2ccc3nc(CC)ccc3c2P(C)(C)=O)n1 (centres unmarked) [Example 470]",
    "System": "EGFR L858R/C797S (BaF3 LC cells) (Homo sapiens, UniProt P00533, C797S/L858R)",
    "DC50": "300 nM"
  },
  {
    "Molecule": "CCc1cc(Nc2ncc(Br)c(Nc3ccc4nc(C)ccc4c3P(C)(C)=O)n2)c(OC)cc1N1CCC(N2CCN(C(=O)[C@H]3CN(c4cc(F)c([C@H]5CCC(=O)NC5=O)c(F)c4)CC3(C)C)CC2)CC1 [Example 487]",
    "System": "EGFR L858R/C797S (BaF3 LC cells) (Homo sapiens, UniProt P00533, C797S/L858R)",
    "DC50": "10.1 nM"
  }
]

Next item in the queue.
The value of DC50 measured for the molecule CCOc1cc(N2CCC(N3CCN(CCc4cc(F)c([C@H]5CCC(=O)NC5=O)c(F)c4)CC3)CC2)c(CC)cc1Nc1ncc(Br)c(Nc2ccc3nc(CC)ncc3c2P(C)(C)=O)n1 [Example 460] turned out to be 37.3 nM
